Assignment: determine reported Binding for the given compounds.
target: Substance-P receptor (Homo sapiens, UniProt P25103); details: UC11MG
Sequence (P25103 whole entry): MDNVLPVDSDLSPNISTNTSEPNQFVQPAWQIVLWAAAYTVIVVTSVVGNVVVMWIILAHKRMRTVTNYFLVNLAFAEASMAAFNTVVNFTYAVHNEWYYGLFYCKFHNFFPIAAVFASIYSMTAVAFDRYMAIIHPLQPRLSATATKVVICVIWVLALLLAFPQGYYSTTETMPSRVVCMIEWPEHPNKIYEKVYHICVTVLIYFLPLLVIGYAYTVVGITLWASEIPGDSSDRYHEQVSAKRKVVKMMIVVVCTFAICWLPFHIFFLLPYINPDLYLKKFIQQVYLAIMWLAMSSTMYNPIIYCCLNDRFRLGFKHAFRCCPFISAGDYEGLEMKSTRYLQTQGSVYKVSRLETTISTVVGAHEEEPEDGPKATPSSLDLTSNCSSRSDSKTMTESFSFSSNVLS
Enter your answer as a number in %; do not include the unit.

Q: Data request, read-out Binding, for `O=C(NCc1cc(C(F)(F)F)cc(C(F)(F)F)c1)c1c(CCl)nc2ccccc2c1-c1ccccc1`
A: 57

Q: Data request, read-out Binding, for `CN(Cc1cc(C(F)(F)F)cc(C(F)(F)F)c1)C(=O)c1c(CN)nc2ccccc2c1-c1ccccc1`
A: 100

Q: Data request, read-out Binding, for `Cc1nc2ccccc2c(-c2ccccc2)c1C(=O)NCc1cc(C(F)(F)F)cc(C(F)(F)F)c1`
A: 78

Q: Data request, read-out Binding, for `Cc1nc2ccccc2c(-c2ccccc2)c1C(=O)N(C)Cc1cc(C(F)(F)F)cc(C(F)(F)F)c1`
A: 73

Q: Data request, read-out Binding, for `O=C(NCc1cc(C(F)(F)F)cc(C(F)(F)F)c1)c1c(CBr)nc2ccccc2c1-c1ccccc1`
A: 71

Q: Data request, read-out Binding, for `CN(Cc1cc(C(F)(F)F)cc(C(F)(F)F)c1)C(=O)c1c(CO)nc2ccccc2c1-c1ccccc1`
A: 75

Q: Data request, read-out Binding, for `O=C(NCc1cc(C(F)(F)F)cc(C(F)(F)F)c1)c1c(CO)nc2ccccc2c1-c1ccccc1`
A: 100

Q: Data request, read-out Binding, for `CN(Cc1ccccc1)Cc1nc2ccccc2c(-c2ccccc2)c1C(=O)NCc1cc(C(F)(F)F)cc(C(F)(F)F)c1`
A: 71

Q: Data request, read-out Binding, for `CN(Cc1cc(C(F)(F)F)cc(C(F)(F)F)c1)C(=O)c1cnc2ccccc2c1-c1ccccc1`
A: 83

Q: Data request, read-out Binding, for `CN(Cc1cc(C(F)(F)F)cc(C(F)(F)F)c1)C(=O)c1c(CBr)nc2ccccc2c1-c1ccccc1`
A: 100

Q: Data request, read-out Binding, for `CC(C)(C)[Si](C)(C)OCc1nc2ccccc2c(-c2ccccc2)c1C(=O)NCc1cc(C(F)(F)F)cc(C(F)(F)F)c1`
A: 100

Q: Data request, read-out Binding, for `Ic1ccccc1CN[C@@H]1C2CCN(CC2)[C@@H]1C(c1ccccc1)c1ccccc1`
A: 100

Q: Data request, read-out Binding, for `NCc1nc2ccccc2c(-c2ccccc2)c1C(=O)NCc1cc(C(F)(F)F)cc(C(F)(F)F)c1`
A: 100

Q: Data request, read-out Binding, for `CNCc1nc2ccccc2c(-c2ccccc2)c1C(=O)NCc1cc(C(F)(F)F)cc(C(F)(F)F)c1`
A: 82

Q: Data request, read-out Binding, for `COCc1nc2ccccc2c(-c2ccccc2)c1C(=O)N(C)Cc1cc(C(F)(F)F)cc(C(F)(F)F)c1`
A: 100

Q: Data request, read-out Binding, for `CN(C)Cc1nc2ccccc2c(-c2ccccc2)c1C(=O)NCc1cc(C(F)(F)F)cc(C(F)(F)F)c1`
A: 40
